FYI, the data here is from the Human Domainome abundance scans (Beltran et al. 2025).

B1: Tyrosine-protein kinase Lck, residues 63 to 120; numbered along this chain, P06239 (parent)
chain: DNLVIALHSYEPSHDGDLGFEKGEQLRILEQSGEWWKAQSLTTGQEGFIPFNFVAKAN

# Variants of: B1
# test.description: abundance fitness (aPCA) (normalised: wild type 0, dead -1); higher = more abundant; growth selection in yeast, the domain comes from the species named
# assay.setup: Homo sapiens
measured.property: abundance fitness
# answer = number (no unit)

// abundance fitness lookup, variant = `E24N` , result: -0.608

// abundance fitness lookup, variant = `N2I` , result: -0.094

// abundance fitness lookup, variant = `L26F` , result: -0.28

// abundance fitness lookup, variant = `A57Q` , result: -0.112
